Test system: TTR
Assay: EC50 and maximum editing in primary human hepatocytes treated with LNP formulated U-depleted Spy Cas9 mRNA and sgRNAs (Tables 19, 21)
Type: cell-based
Design: key: % of sequence reads with indels or substitutions over total reads
Conditions: Table 21, LNP with U-depleted Spy Cas9 mRNA and cyno specific sgRNAs, dose response
Strand notation (5' to 3'): a small letter for the sugar, then the base; units joined by * are phosphorothioate-linked, units joined directly phosphodiester-linked; [ ] holds rarer units or linkages, { } end groups; capitals alone tell only the bases. m = 2'-O-methyl; r = 2'-OH (RNA)
Examples of molecules with documented Max Editing follow.
Give the figure by itself; no unit, no explanation.

For orientation, consider the following solved cases.
Query: Using the record for G000502: TTR Cyno specific sgRNA modified sequence, SEQ ID No. 114; guide sequence of CR000689; cross homologous between mouse and cyno (nucleic acid) guide: mA*mC*mA*rCrArArArUrArCrCrArGrUrCrCrArGrCrGrGrUrUrUrUrArGrAmGmCmUmAmGmAmAmAmUmAmGmCrArArGrUrUrArArArArUrArArGrGrCrUrArGrUrCrCrGrUrUrArUrCrAmAmCmUmUmGmAmAmAmAmAmGmUmGmGmCmAmCmCmGmAmGmUmCmGmGmUmGmCmU*mU*mU*mU , report its Max Editing.
Response: 91.50

Query: Using the record for G000505: TTR Cyno specific sgRNA modified sequence, SEQ ID No. 117; guide sequence of CR005365 (nucleic acid) guide: mC*mA*mU*rUrGrArCrArGrCrArGrGrArCrUrGrCrCrUrGrUrUrUrUrArGrAmGmCmUmAmGmAmAmAmUmAmGmCrArArGrUrUrArArArArUrArArGrGrCrUrArGrUrCrCrGrUrUrArUrCrAmAmCmUmUmGmAmAmAmAmAmGmUmGmGmCmAmCmCmGmAmGmUmCmGmGmUmGmCmU*mU*mU*mU , report its Max Editing.
Response: 13.48

Query: Using the record for G000504: TTR Cyno specific sgRNA modified sequence, SEQ ID No. 116; guide sequence of CR005364 (nucleic acid) guide: mA*mA*mA*rGrGrCrUrGrCrUrGrArUrGrArGrArCrCrUrGrUrUrUrUrArGrAmGmCmUmAmGmAmAmAmUmAmGmCrArArGrUrUrArArArArUrArArGrGrCrUrArGrUrCrCrGrUrUrArUrCrAmAmCmUmUmGmAmAmAmAmAmGmUmGmGmCmAmCmCmGmAmGmUmCmGmGmUmGmCmU*mU*mU*mU , report its Max Editing.
Response: 7.16

Query molecule follows.
Query: Using the record for G000506: TTR Cyno specific sgRNA modified sequence, SEQ ID No. 118; guide sequence of CR005366 (nucleic acid) guide: mA*mU*mA*rCrCrArGrUrCrCrArGrCrGrArGrGrCrArGrGrUrUrUrUrArGrAmGmCmUmAmGmAmAmAmUmAmGmCrArArGrUrUrArArArArUrArArGrGrCrUrArGrUrCrCrGrUrUrArUrCrAmAmCmUmUmGmAmAmAmAmAmGmUmGmGmCmAmCmCmGmAmGmUmCmGmGmUmGmCmU*mU*mU*mU , report its Max Editing.
Response: 89.49

Just for reference, patent US11795460B2 is where these values come from.
